This section lists pIC50 readings for HDAC1 (Homo sapiens (Human), UniProt Q13547).
pIC50: −log10 of the molar value.

A selection of reference data follows.
Nc1ccc(-c2ccco2)cc1NC(=O)c1nc(N2CCNCC2)cs1 | < 6.30
Nc1ccc(-c2ccccn2)cc1NC(=O)c1ccc(N2CCNCC2)nc1 | 6.30 to 8.00
Nc1ccc(-c2ccc(F)cc2)cc1NC(=O)c1ncc(N2CCNCC2)s1 | > 8.00
Nc1ccc(-c2ccc(F)cc2)cc1NC(=O)c1ccc(N2CCNCC2)cn1 | > 8.00
Nc1ccc(-c2ccc(F)cc2)cc1NC(=O)c1cnc(N2CCNCC2)o1 | < 6.30
Nc1ccc(-c2cccs2)cc1NC(=O)c1csc(N2CCNCC2)n1 | < 6.30
CN1CCN(c2ncc(C(=O)Nc3cc(-c4ccccc4)ccc3N)s2)CC1 | > 8.00
CN1CCN(c2ccc(C(=O)Nc3cc(-c4ccco4)ccc3N)nc2)CC1 | > 8.00
Nc1ccc(-c2cccc(F)c2)cc1NC(=O)c1ccc(N2CCNCC2)nc1 | 6.30 to 8.00

Any idea what pIC50 was measured for `CN1CCN(c2ccc(C(=O)Nc3cc(-c4ccco4)ccc3N)cn2)CC1` ?
> 8.00

---

- experiment description: Rat pharmacokinetics, cassette dosing (IV and PO)
- Type: in vivo
- run parameters: rat; male SD rats, PO 5 mg/kg, plasma
Measured Cmax of individual entries
Respond with the bare value in ng/mL.

A selection of reference data follows.
Nc1ccc(-c2ccccc2)cc1NC(=O)c1cc2ccc(N3CCNCC3)cc2cn1 | 517
CN1CCN(c2ccc(C(=O)Nc3cc(-c4ccncc4)ccc3N)cn2)CC1 | 839
Nc1ccc(-c2ccco2)cc1NC(=O)c1ccc2nc(N3CCNCC3)ccc2c1 | 1910
Nc1ccc(-c2ccc(F)cc2)cc1NC(=O)c1ccc2nc(N3CCNCC3)ccc2c1 | 1870
Nc1ccc(-c2cccs2)cc1NC(=O)c1ccc(N2CCNCC2)cc1 | 534
Nc1ccc(-c2ccncc2)cc1NC(=O)c1ccc(N2CCNCC2)nc1 | 164
Nc1ccc(-c2ccc(F)cc2)cc1NC(=O)c1ccc(N2CCNCC2)nc1 | 500
Nc1ccccc1NC(=O)c1cc2ccc(N3CCNCC3)cc2cn1 | 68

Any idea what Cmax was measured for `Nc1ccc(-c2ccco2)cc1NC(=O)c1ccc(N2CCNCC2)cc1` ?
425

---

Measured IC50 of individual entries
- tested target: hERG (Homo sapiens (Human), UniProt Q12809)
- Sequence (Q12809 whole entry): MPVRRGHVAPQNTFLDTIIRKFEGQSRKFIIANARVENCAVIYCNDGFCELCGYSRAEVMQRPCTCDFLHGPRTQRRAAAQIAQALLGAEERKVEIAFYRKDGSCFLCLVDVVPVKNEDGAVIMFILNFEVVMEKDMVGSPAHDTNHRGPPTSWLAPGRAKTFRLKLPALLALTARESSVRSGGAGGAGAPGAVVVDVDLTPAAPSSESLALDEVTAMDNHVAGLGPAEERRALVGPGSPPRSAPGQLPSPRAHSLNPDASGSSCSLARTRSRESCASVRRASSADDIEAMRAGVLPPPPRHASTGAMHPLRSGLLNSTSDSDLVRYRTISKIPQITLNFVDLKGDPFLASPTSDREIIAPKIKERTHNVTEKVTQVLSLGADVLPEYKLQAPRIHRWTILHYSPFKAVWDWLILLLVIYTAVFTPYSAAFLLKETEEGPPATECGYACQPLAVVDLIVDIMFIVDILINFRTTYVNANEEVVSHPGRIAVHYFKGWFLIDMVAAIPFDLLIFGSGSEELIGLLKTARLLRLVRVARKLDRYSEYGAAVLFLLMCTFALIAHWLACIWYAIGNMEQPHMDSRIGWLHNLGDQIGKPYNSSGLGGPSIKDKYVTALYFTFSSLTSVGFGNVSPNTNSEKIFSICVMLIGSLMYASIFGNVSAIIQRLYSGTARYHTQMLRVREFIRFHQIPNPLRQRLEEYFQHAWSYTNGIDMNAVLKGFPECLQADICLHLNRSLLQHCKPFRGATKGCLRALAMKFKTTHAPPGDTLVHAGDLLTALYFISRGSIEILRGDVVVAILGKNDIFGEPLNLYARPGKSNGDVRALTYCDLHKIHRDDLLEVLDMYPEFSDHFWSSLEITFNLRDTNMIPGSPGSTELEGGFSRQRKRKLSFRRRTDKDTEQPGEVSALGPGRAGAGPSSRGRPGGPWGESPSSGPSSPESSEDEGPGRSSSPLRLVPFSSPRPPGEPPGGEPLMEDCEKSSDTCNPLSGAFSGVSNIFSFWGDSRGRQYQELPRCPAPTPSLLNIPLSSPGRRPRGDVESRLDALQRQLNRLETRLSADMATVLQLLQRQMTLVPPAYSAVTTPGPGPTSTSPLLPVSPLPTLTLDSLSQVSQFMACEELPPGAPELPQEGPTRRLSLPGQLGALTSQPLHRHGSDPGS
- experiment description: hERG inhibition, whole-cell patch clamp
- Type: cell-based
- run parameters: HEK293 cells stably transfected with hERG, 34 °C, tail current
Respond with the bare value in µM.

A selection of reference data follows.
Nc1ccc(-c2ccccc2)cc1NC(=O)c1ccc(N2CCNCC2)nc1 [Compound 006] | 5.1
CN1CCN(c2ccc(C(=O)Nc3cc(-c4ccncc4)ccc3N)nc2)CC1 [Compound 028] | 38
Nc1ccc(-c2cccs2)cc1NC(=O)c1ccc(N2CCNCC2)nc1 [Compound 007] | 8.6

Then there is this molecule:
Any idea what IC50 was measured for Nc1ccc(-c2ccccc2)cc1NC(=O)c1cc2ccc(N3CCNCC3)cc2cn1 [Compound 022] ?
0.4

---

- experiment description: Rat pharmacokinetics, cassette dosing (IV and PO)
- Assay type: in vivo
- run parameters: rat; male SD rats, PO 5 mg/kg, plasma
- Method: Male SD rats were fasted overnight. Compounds of the invention were dissolved in dimethyl acetamide at 10 times the final concentration, then Solutol HS 15 (BASF) was added to a final concentration of 10%. […] The plasma was extracted with acetonitrile and the level of compound was analyzed by LC/MS/MS. The level of compound in plasma was calculated from a standard curve in rat plasma. The IV clearance (L/h/kg) and area under the curve (h*ng/mL) were calculated using WinNonLin software. […]
Label TRUE when Cmax is strictly below 700 ng/mL; at or above that, label FALSE.

Nc1ccc(-c2ccoc2)cc1NC(=O)c1ccc2nc(N3CCNCC3)ccc2c1 [Compound 004] | FALSE
Nc1ccc(-c2ccncc2)cc1NC(=O)c1cnc(N2CCNCC2)s1 [Compound 032] | TRUE
Nc1ccc(-c2cccs2)cc1NC(=O)c1cnc2cc(N3CCNCC3)ccc2c1 [Compound 023] | TRUE
Nc1ccc(-c2ccco2)cc1NC(=O)c1cnc2cc(N3CCNCC3)ccc2c1 [Compound 024] | FALSE
Nc1ccc(-c2ccoc2)cc1NC(=O)c1ccc(N2CCNCC2)cc1 [Compound 014] | FALSE

We next turn to a different molecule, shown below.
State whether 700 ng/mL exceeds Cmax recorded for Nc1ccc(-c2cccs2)cc1NC(=O)c1ccc(N2CCNCC2)s1 [Compound 033] .
TRUE
